We begin with a simple list: items and their reported viability, T/C.
test system: HSSY-II complex spheroid growth, percent test/control; test: Anticancer human tumor HSSY-II cell line growth inhibition [Asc]; settings: second compound 1 µM; first compound 0.001 µM; active compounds read low;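 note: spheroids exposed to drug for 7 days before reading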
Give a bare numeral; the unit % is implied.

# annotated cases, reported viability, T/C shown
NC1CCC(NC2CC2c2ccccc2)CC1 (centres undefined) + CNC(C)C(=O)NC1CN(S(=O)(=O)c2cccc(S(=O)(=O)N3CCC4CCC(C(=O)NC(c5ccccc5)c5ccccc5)N4C(=O)C(NC(=O)C(C)NC)C3)c2)CCC2CCC(C(=O)NC(c3ccccc3)c3ccccc3)N2C1=O	47.1
NC1CCC(NC2CC2c2ccccc2)CC1 (centres undefined) + Cc1c(S(C)(=O)=O)c(-c2cc(F)cc(N3CCN(c4ccc(NS(=O)(=O)c5ccc(NC(CCN6CCC(C(=O)OCCCP(=O)(O)O)CC6)CSc6ccccc6)c(S(=O)(=O)C(F)(F)F)c5)cc4)CC3)c2)c(-c2ccc(Cl)cc2)n1C(C)C	60.8
Cn1ncnc1[C@H]1c2n[nH]c(=O)c3cc(F)cc(c23)N[C@@H]1c1ccc(F)cc1 + Cc1c(S(C)(=O)=O)c(-c2cc(F)cc(N3CCN(c4ccc(NS(=O)(=O)c5ccc(NC(CCN6CCC(C(=O)OCCCP(=O)(O)O)CC6)CSc6ccccc6)c(S(=O)(=O)C(F)(F)F)c5)cc4)CC3)c2)c(-c2ccc(Cl)cc2)n1C(C)C	82.2

Let's switch to this compound now.
API: value(readout= viability, T/C, system= HSSY-II complex spheroid growth, percent test/control, query= Cn1ncnc1[C@H]1c2n[nH]c(=O)c3cc(F)cc(c23)N[C@@H]1c1ccc(F)cc1 + CNC(C)C(=O)NC1CN(S(=O)(=O)c2cccc(S(=O)(=O)N3CCC4CCC(C(=O)NC(c5ccccc5)c5ccccc5)N4C(=O)C(NC(=O)C(C)NC)C3)c2)CCC2CCC(C(=O)NC(c3ccccc3)c3ccccc3)N2C1=O ) 84.5

###

tested on: HSSY-II complex spheroid growth, percent test/control; test: Anticancer human tumor HSSY-II cell line growth inhibition [Asc]; conditions: second compound 1 µM; first compound 10 µM; active compounds read low;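 note: spheroids exposed to drug for 7 days before reading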
viability, T/C under 6% gets met, anything at or over 6% gets not met.

O=C(c1cc(Cc2n[nH]c(=O)c3ccccc23)ccc1F)N1CCN(C(=O)C2CC2)CC1 + Cc1c(S(C)(=O)=O)c(-c2cc(F)cc(N3CCN(c4ccc(NS(=O)(=O)c5ccc(NC(CCN6CCC(C(=O)OCCCP(=O)(O)O)CC6)CSc6ccccc6)c(S(=O)(=O)C(F)(F)F)c5)cc4)CC3)c2)c(-c2ccc(Cl)cc2)n1C(C)C	met
C=C(F)C(=O)N1CCN(c2nc(OCC3CCCN3C)nc3c2CCN(c2cccc4cccc(Cl)c24)C3)CC1CC#N (stereo not given) + Cc1c(S(C)(=O)=O)c(-c2cc(F)cc(N3CCN(c4ccc(NS(=O)(=O)c5ccc(NC(CCN6CCC(C(=O)OCCCP(=O)(O)O)CC6)CSc6ccccc6)c(S(=O)(=O)C(F)(F)F)c5)cc4)CC3)c2)c(-c2ccc(Cl)cc2)n1C(C)C	met
C=CC(=O)N1CCN(c2nc(=O)n(-c3c(C)ccnc3C(C)C)c3nc(-c4c(O)cccc4F)c(F)cc23)C(C)C1 (stereo not given) + Cc1c(S(C)(=O)=O)c(-c2cc(F)cc(N3CCN(c4ccc(NS(=O)(=O)c5ccc(NC(CCN6CCC(C(=O)OCCCP(=O)(O)O)CC6)CSc6ccccc6)c(S(=O)(=O)C(F)(F)F)c5)cc4)CC3)c2)c(-c2ccc(Cl)cc2)n1C(C)C	not met

Is the reported viability, T/C for C#Cc1c(F)ccc2cc(O)cc(-c3ncc4c(N5CC6CCC(C5)N6)nc(OCC56CCCN5CC(F)C6)nc4c3F)c12 (stereo not given) + Cc1c(S(C)(=O)=O)c(-c2cc(F)cc(N3CCN(c4ccc(NS(=O)(=O)c5ccc(NC(CCN6CCC(C(=O)OCCCP(=O)(O)O)CC6)CSc6ccccc6)c(S(=O)(=O)C(F)(F)F)c5)cc4)CC3)c2)c(-c2ccc(Cl)cc2)n1C(C)C strictly below 6%? not met

I'd appreciate it if you could check whether C#Cc1c(F)ccc2cc(O)cc(-c3ncc4c(N5CC6CCC(C5)N6)nc(OCC56CCCN5CC(F)C6)nc4c3F)c12 (stereo not given) + CNC(C)C(=O)NC1CN(S(=O)(=O)c2cccc(S(=O)(=O)N3CCC4CCC(C(=O)NC(c5ccccc5)c5ccccc5)N4C(=O)C(NC(=O)C(C)NC)C3)c2)CCC2CCC(C(=O)NC(c3ccccc3)c3ccccc3)N2C1=O has viability, T/C smaller than 6%. not met

Data provenance is PubChem BioAssay AID1963444.
